Target Or System: human TLR8 (Homo sapiens)
Sequence (Q9NR97 27-1041): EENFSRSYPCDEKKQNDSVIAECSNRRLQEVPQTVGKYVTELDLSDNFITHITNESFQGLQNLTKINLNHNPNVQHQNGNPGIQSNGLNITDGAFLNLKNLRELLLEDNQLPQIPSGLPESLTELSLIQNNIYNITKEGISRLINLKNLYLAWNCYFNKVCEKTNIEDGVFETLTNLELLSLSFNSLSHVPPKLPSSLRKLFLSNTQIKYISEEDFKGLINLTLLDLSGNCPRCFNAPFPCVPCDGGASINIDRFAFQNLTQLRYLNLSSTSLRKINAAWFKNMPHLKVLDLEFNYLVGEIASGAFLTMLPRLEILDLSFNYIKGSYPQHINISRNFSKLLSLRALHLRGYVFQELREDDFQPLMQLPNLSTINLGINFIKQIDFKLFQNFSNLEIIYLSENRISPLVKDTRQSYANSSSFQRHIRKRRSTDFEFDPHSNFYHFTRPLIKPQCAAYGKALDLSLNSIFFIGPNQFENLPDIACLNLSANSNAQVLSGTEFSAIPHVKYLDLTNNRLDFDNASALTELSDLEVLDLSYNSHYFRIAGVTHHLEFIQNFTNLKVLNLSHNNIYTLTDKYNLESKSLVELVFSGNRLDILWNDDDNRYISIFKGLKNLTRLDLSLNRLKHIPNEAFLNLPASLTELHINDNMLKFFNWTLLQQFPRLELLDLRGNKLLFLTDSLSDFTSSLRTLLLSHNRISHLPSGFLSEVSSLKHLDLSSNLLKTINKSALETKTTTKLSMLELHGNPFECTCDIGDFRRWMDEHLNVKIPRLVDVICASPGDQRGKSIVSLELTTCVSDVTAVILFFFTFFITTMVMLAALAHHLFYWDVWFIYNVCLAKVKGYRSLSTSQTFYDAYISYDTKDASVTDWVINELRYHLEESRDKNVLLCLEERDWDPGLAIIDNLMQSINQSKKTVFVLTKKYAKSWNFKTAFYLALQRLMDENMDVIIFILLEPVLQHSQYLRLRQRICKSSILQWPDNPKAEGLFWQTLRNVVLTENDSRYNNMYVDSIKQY
Protocol Details: TLR8 inhibition reporter assay (HEK-Blue cells, SEAP reporter, R848 stimulation)
Protocol Conditions: HEK-Blue cells overexpressing human TLR8, R848 15.9 μM
pIC50: −log10 of the molar value.

| Compound | pIC50 |
| --- | --- |
| COc1ccc(-c2[nH]c3ccc(C4CCN(C(=O)CN5CCC[C@H](C(=O)N6C(C)CCC6C)C5)CC4)cc3c2C(C)C)cc1OC (stereo partly shown) | 7.15 |
| CCc1c(-c2ccc(OC)c(OC)c2)[nH]c2ccc(C3CCN(C4CCN(Cc5cnc(C)o5)CC4)CC3)cc12 | 6.61 |
| COc1ccc(-c2[nH]c3ccc(C4CCNCC4F)cc3c2C(C)C)cc1OC (racemic) [Example 320] | 6.91 |
| COc1ccc(-c2[nH]c3ccc(C4CCN(C5CCN(C6CCC(O)CC6)CC5)CC4)cc3c2C)cc1OC (stereo not shown) | 6.84 |
| COc1ccc(-c2[nH]c3ccc(C4CCN(CC(=O)NCCCN5CCCC5=O)CC4)cc3c2CC(F)(F)F)cc1OC | 7.19 |
| COc1ccc(-c2[nH]c3ccc(C4CCN(C5CCN(C(C)C)CC5)CC4)cc3c2CC(F)(F)F)cc1OC | 7.68 |
| COc1ccc(-c2[nH]c3ccc(C4CCN(C(=O)CNC5CCC(C(C)(C)O)CC5)CC4)cc3c2C(C)C)cc1OC (stereo not shown) | 7.59 |
